# test system: Recombinant Human Enteropeptidase (Homo sapiens (Human), UniProt P98073)
# Sequence (P98073 whole entry): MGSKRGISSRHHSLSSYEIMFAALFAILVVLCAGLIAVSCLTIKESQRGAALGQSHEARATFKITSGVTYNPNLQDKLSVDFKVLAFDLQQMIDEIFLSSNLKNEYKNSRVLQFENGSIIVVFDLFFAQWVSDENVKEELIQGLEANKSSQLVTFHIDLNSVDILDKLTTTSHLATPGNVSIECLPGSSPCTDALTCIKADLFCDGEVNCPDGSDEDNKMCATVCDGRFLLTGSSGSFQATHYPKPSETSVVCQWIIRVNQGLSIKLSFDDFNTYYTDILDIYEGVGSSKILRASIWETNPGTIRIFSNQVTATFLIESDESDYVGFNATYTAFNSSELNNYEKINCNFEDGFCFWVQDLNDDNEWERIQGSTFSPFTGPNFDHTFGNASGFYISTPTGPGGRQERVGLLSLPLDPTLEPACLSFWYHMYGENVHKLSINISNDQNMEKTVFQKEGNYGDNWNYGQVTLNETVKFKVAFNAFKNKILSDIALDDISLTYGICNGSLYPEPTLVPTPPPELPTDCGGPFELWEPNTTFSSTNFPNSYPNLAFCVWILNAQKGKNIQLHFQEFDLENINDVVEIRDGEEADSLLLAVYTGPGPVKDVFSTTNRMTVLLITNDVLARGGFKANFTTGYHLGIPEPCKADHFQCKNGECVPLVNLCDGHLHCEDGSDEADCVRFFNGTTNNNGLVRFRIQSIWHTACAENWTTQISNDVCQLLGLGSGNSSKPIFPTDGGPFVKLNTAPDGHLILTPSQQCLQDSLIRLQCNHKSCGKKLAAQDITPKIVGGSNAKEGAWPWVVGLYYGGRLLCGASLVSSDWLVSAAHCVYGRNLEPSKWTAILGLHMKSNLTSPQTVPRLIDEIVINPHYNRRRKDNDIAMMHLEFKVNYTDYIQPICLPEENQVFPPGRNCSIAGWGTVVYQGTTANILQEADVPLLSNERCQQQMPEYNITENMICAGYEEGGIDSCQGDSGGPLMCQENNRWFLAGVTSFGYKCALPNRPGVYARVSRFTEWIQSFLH
# procedure text: Enteropeptidase Inhibition Assay
# condition label: substrate Acetyl-Asp-Asp-Asp-Asp-Lys-AFC 30 μM, 30° C., 1 hour; Ki calculated from IC50 using Cheng-Prusoff equation
Entries and their measured pKi follow.
Please express pKi as -log10 of the molar concentration.

# count of solved cases: 4
COC(=O)C(C)(C)CNC(=O)C1CCN(c2ncc(C(=O)Oc3ccc(C(=N)N)cc3)s2)CC1 [Example 32]	7.74
CCN(CCC(=O)Nc1cccc(C(=O)OC)c1)c1ncc(C(=O)Oc2ccc(C(=N)N)cc2F)s1 [Example 51]	8.01
COC(=O)CCCN(C)C(=O)C1CCN(c2ncc(C(=O)Oc3ccc(C(=N)N)cc3F)s2)CC1 [Example 41]	8.74
CN(CC(C)(C)C(=O)O)c1nc2ccc(C(=O)Oc3ccc(C(=N)N)cc3)cc2s1 [Example 86]	8.00

Given the entry CC(C)(CNC(=O)C1CCN(c2ncc(C(=O)Oc3ccc(C(=N)N)cc3)s2)CC1)C(=O)O [Example 36] , what pKi was observed with Recombinant Human Enteropeptidase (Homo sapiens (Human), UniProt P98073)?
8.01

Then this compound: CCN(CCC(=O)O)c1ncc(C(=O)Oc2ccc(C(=N)N)cc2)s1 [Example 14]
8.29

====

Entries and their measured pKi follow.
# test system: Recombinant Human Enteropeptidase (Homo sapiens (Human))
# procedure text: Enteropeptidase Inhibition Assay
# condition label: substrate Acetyl-Asp-Asp-Asp-Asp-Lys-AFC 30 μM, 30° C., 1 hour; Ki calculated from IC50 using Cheng-Prusoff equation
Please express pKi as -log10 of the molar concentration.

# count of solved cases: 4
COC(=O)CCCN(C)c1ncc(C(=O)Oc2ccc(C(=N)N)cc2F)s1	8.52
CC(C)(CNC(=O)C1CCN(c2ncc(C(=O)Oc3ccc(C(=N)N)cc3F)s2)CC1)C(=O)O	8.82
COC(=O)C1CCN(c2ncc(C(=O)Oc3ccc(NC(=N)N)cc3)s2)CC1	6.29
CCN(CC(C)(C)C(=O)OC)c1nc2ccc(C(=O)Oc3ccc(C(=N)N)cc3)cc2s1	7.68

GET /values?readout=pKi&item= CCN(CCC(=O)Nc1ccc(C(=O)OC(C)(C)C)cc1)c1ncc(C(=O)Oc2ccc(C(=N)N)cc2F)s1
7.09

Then this compound: CCN(CCC(=O)Nc1ccc(C(=O)O)cc1)c1ncc(C(=O)Oc2ccc(C(=N)N)cc2F)s1
8.09

====

# test system: Recombinant Human Enteropeptidase (Homo sapiens (Human), UniProt P98073)
# procedure text: Enteropeptidase Inhibition Assay
# condition label: substrate Acetyl-Asp-Asp-Asp-Asp-Lys-AFC 30 μM, 30° C., 1 hour; Ki calculated from IC50 using Cheng-Prusoff equation
Entries and their measured Ki follow.

# count of solved cases: 5
N=C(N)c1ccc(OC(=O)c2cnc(N3CCC(C(=O)NCCC(=O)O)CC3)s2)c(F)c1	1.7 nM
N=C(N)c1ccc(OC(=O)c2cnc(N3CCC(C(=O)O)CC3)s2)cc1	4.9 nM
N=C(N)c1ccc(OC(=O)c2cnc(N3CCC(NC(=O)c4ccccc4)CC3)s2)cc1	6.5 nM
COC(=O)CCCN(C)c1ncc(C(=O)Oc2ccc(C(=N)N)cc2)s1	21 nM
N=C(N)c1ccc(OC(=O)c2cnc(N3CCC(C(=O)O)CC3)s2)c(F)c1	0.6 nM

GET /values?readout=Ki&item= N=C(N)c1ccc(OC(=O)c2cnc(NCCC(=O)O)s2)cc1
4.8 nM

Then this molecule: N=C(N)c1ccc(OC(=O)c2cnc(N3CCC(C(=O)Nc4ccccc4)CC3)s2)cc1
12 nM

Then this molecule: CN(CCCC(=O)O)c1ncc(C(=O)Oc2ccc(C(=N)N)cc2F)s1
0.57 nM

Then this molecule: N=C(N)c1ccc(OC(=O)c2cnc(N3CCC(C(=O)NCCC(=O)O)CC3)s2)cc1
8.9 nM

====

# test system: Recombinant Human Enteropeptidase (Homo sapiens (Human), UniProt P98073)
# procedure text: Enteropeptidase Inhibition Assay
# condition label: substrate Acetyl-Asp-Asp-Asp-Asp-Lys-AFC 30 μM, 30° C., 1 hour; Ki calculated from IC50 using Cheng-Prusoff equation
Entries and their measured pKi follow.
Please express pKi as -log10 of the molar concentration.

# count of solved cases: 6
CCN(CCC(=O)Nc1cccc(C(=O)O)c1)c1ncc(C(=O)Oc2ccc(C(=N)N)cc2F)s1	8.60
COC(=O)CCNC(=O)C1CCN(c2ncc(C(=O)Oc3ccc(C(=N)N)cc3F)s2)CC1	8.59
COC(=O)C1CCN(c2ncc(C(=O)Oc3ccc(C(=N)N)cc3)s2)CC1	7.77
CCN(CCC(=O)N[C@@H](CC(=O)O)C(=O)O)c1ncc(C(=O)Oc2ccc(C(=N)N)cc2F)s1	9.28
COC(=O)C1CCN(c2ncc(C(=O)Oc3ccc(C(=N)N)cc3F)s2)CC1	9.04
CCN(CC(C)(C)C(=O)OC)c1nc2ccc(C(=O)Oc3ccc(C(=N)N)cc3F)cc2s1	8.46

GET /values?readout=pKi&item= CN(CCC(=O)O)c1nc2ccc(C(=O)Oc3ccc(C(=N)N)cc3F)cc2s1
9.24

Then this compound: N=C(N)c1ccc(OC(=O)c2ccc3nc(N4CCC(NC(=O)c5ccccc5)CC4)sc3c2)c(F)c1
8.72

====

# test system: Recombinant Human Enteropeptidase (Homo sapiens (Human))
# procedure text: Enteropeptidase Inhibition Assay
# condition label: substrate Acetyl-Asp-Asp-Asp-Asp-Lys-AFC 30 μM, 30° C., 1 hour; Ki calculated from IC50 using Cheng-Prusoff equation
Entries and their measured Ki follow.
The reply should be a number in nM, with the unit left off.

GET /values?readout=Ki&item= CN(CCCC(=O)O)c1nc2ccc(C(=O)Oc3ccc(C(=N)N)cc3F)cc2s1 [Example 76]
0.57

Then this molecule: CCN(CC(C)(C)C(=O)O)c1nc2ccc(C(=O)Oc3ccc(C(=N)N)cc3F)cc2s1 [Example 75]
0.7

Then this molecule: CN(CCC(=O)O)c1ncc(C(=O)Oc2ccc(C(=N)N)cc2)s1 [Example 9]
28

Then this molecule: CCN(CCC(=O)N[C@H](CCC(=O)OC(C)(C)C)C(=O)OC(C)(C)C)c1ncc(C(=O)Oc2ccc(C(=N)N)cc2F)s1 [Example 48]
37

Then this molecule: COC(=O)CCN(C)c1nc2ccc(C(=O)Oc3ccc(C(=N)N)cc3F)cc2s1 [Example 72]
1.3

Then this molecule: N=C(N)c1ccc(OC(=O)c2cnc(N3CCC(C(=O)NCC(=O)O)CC3)s2)c(F)c1 [Example 42]
1

Then this molecule: CC(C)(CNc1nc2ccc(C(=O)Oc3ccc(C(=N)N)cc3F)cc2s1)C(=O)O [Example 56]
0.59

Then this molecule: N=C(N)c1ccc(OC(=O)c2cnc(N3CCC(C(=O)N[C@@H](CC(=O)O)C(=O)O)CC3)s2)cc1 [Example 25]
4.7

Then this molecule: CCN(CCC(=O)Nc1cccc(C(=O)OC(C)(C)C)c1)c1ncc(C(=O)Oc2ccc(C(=N)N)cc2F)s1 [Example 53]
12

Then this molecule: CN(CC(C)(C)C(=O)O)c1ncc(C(=O)Oc2ccc(C(=N)N)cc2)s1 [Example 19]
4.8

====

# test system: Recombinant Human Enteropeptidase (Homo sapiens (Human))
# procedure text: Enteropeptidase Inhibition Assay
# condition label: substrate Acetyl-Asp-Asp-Asp-Asp-Lys-AFC 30 μM, 30° C., 1 hour; Ki calculated from IC50 using Cheng-Prusoff equation
Entries and their measured Ki follow.
The reply should be a number in nM, with the unit left off.

CCN(CCC(=O)OC)c1nc2ccc(C(=O)Oc3ccc(C(=N)N)cc3)cc2s1	10

Now for another entry.
Given the entry COC(=O)CNC(=O)C1CCN(c2ncc(C(=O)Oc3ccc(C(=N)N)cc3F)s2)CC1 , what Ki was observed with Recombinant Human Enteropeptidase (Homo sapiens (Human))?
1.8

====

Entries and their measured pKi follow.
# test system: Recombinant Human Enteropeptidase (Homo sapiens (Human))
# procedure text: Enteropeptidase Inhibition Assay
# condition label: substrate Acetyl-Asp-Asp-Asp-Asp-Lys-AFC 30 μM, 30° C., 1 hour; Ki calculated from IC50 using Cheng-Prusoff equation
Please express pKi as -log10 of the molar concentration.

# count of solved cases: 4
COC(=O)CCNc1ncc(C(=O)Oc2ccc(C(=N)N)cc2)s1 [Example 10]	7.96
N=C(N)c1ccc(OC(=O)c2ccc3nc(NCCC(=O)O)sc3c2)cc1 [Example 65]	8.24
CCN(CCC(=O)OC)c1nc2ccc(C(=O)Oc3ccc(C(=N)N)cc3F)cc2s1 [Example 84]	8.66
CCn1/c(=N/CC(C)(C)C(=O)OC)sc2cc(C(=O)Oc3ccc(C(=N)N)cc3F)ccc21 [Example 87]	8.40

GET /values?readout=pKi&item= COC(=O)C(C)(C)CN(C)c1ncc(C(=O)Oc2ccc(C(=N)N)cc2)s1 [Example 18]
8.05
